Entry source: the nanobody polyreactivity screen of Harvey et al. (2022)

- protocol_description: yeast display, Sf9 membrane polyspecificity reagent, FACS + sequencing; frameworks hold sequencing errors
assay_endpoint: polyreactivity (PSR sort gate)

• QVQLVESGGGLVQSGGSLRLSCAASGFTLYYYAMGWYRQAPGKERELVARISGSSGRTYYADSVKGRFTISRDNAMNTFYLQMNSLKPEDTAVYFCAARYYTSATMDYWGQGTQVTVSS = high polyreactivity
• QVQLVESGGGLVQAGGSLRLSCAASGRTFGGYALGWYRQAPGKERELVAAISSGGGTYADSVKGRFTISRDNAKNTVYIQMNSLKPEDTAVYYCAAGYRWYWASKPTVHYYYWGPGTQVTVSS = high polyreactivity
• QVQLVESGGGLVQAGGSLRLSCAASGFTFRYYAMGWYRQAPGKERELVASISWSSGSTHYADSVKGRFTISRDNAKNTVYLQMNSLKPEDTAVYYCNARHRTSSMHYWGQGTQVTVSS = high polyreactivity

====

- protocol_description: yeast display, Sf9 membrane polyspecificity reagent, FACS + sequencing; frameworks hold sequencing errors
assay_endpoint: polyreactivity (PSR sort gate)

- QVQLVESGGGLVQAGGSHRLSCAASGSTIAGNAMGWYRQAPGKERELVAVITRGGSTNYADSVKGRFTISRDNAKNTVYLQLNSLKPEDTAVYYCARYRFLLDYWGGGYYWGQGTQVTVSS: high polyreactivity
- QVQLVESGGGLVQAGGSLRLSCAASGSTFRLYAMGWYRPAPGKERELVAGISRTGTSTYYADSVKGRFTISRDNAKNTVYLQMNSLKPEDTAVYYCAAVRYWSDYDYWGQGTQVTVSS: high polyreactivity
- QVQLVESGGGLVQAGGSLRLSCAASGSIFGGYTMGWYRQAPGKERELVAAISRRGGNTYYADSVKGRFTISRDNAKNTVYLQMKSLKPEDTAVYYCAVRWPSARIPVKLDYWGQGTQVTVSS: high polyreactivity

====

- protocol_description: yeast display, Sf9 membrane polyspecificity reagent, FACS + sequencing; frameworks hold sequencing errors
assay_endpoint: polyreactivity (PSR sort gate)

• QVQLVESGGGLVQAGGSLRLSCAASGRTFRPNVMGWYRQAPGKERELVAAISNGGRTYYADSVKGRFTISRDNAKNTVYLQMNSLKPEDTAVYYCNKVRSPWYDSWGQGTQVTVSS = high polyreactivity
• QVQLVESGGGLVQAGGSLRLSCAASGSTFAWNAMGWYRQAPGKERELVAAISWSGVRTYYADSVKGRFTISRDNAKNTVYLQMNSLKPEDTAVYYCAAPVYWAYTRSMDYWGQGTQVTVSS = high polyreactivity

====

- protocol_description: yeast display, Sf9 membrane polyspecificity reagent, FACS + sequencing; frameworks hold sequencing errors
assay_endpoint: polyreactivity (PSR sort gate)

Sample records with polyreactivity (PSR sort gate):
• QVQLVESGGGLVQAGGSLRLSCAASGRTFGRYAMGWYRQAPGKAREFVAAISSSGGSTSYADSVKGRFTISRDNAKNTVYLQMNSLKPEDTAVYYCNADAYRITRYGYDYWGQGTQVTVSS = high polyreactivity
• QVQLVESGGGLVQAGGSLRLSCAASGSTFRENDMGWYRQAPGKERELVAALTFSGGSTYADSVKGRFTISRDNAKNTVYLQMNSLKPEDTAVYYCSADTLPAEFDYDYWGQGTQVTVSS = low polyreactivity
• QVQLVESGGGLVQAGGSLRLSCAASGRVFTPYAMGWYRQAPGKERELVAVIRDGSTYYADSVKGRFTISRDNAKNTVYLQMNSLKPEDTAVYYCRYDIWVWWSGAYDYWGQVTQVTVSS = low polyreactivity
• QDQLVKSGGGLVQAGGSLLLSCAASGHTFSGYVMGWYRPAHGKERELVAAIRSGGSTYYADSVKGRFTISRDNAKKTVYLQMNSLKPEDTAVYYCAKSVTRYRTSAYGYWGQGTQVTVSS = high polyreactivity

IN: Request the reported polyreactivity (PSR sort gate) associated with `QVQLVESGGGLDQAGGSLRLSCADSGITFSYYAMRWYRQAPGKERELVAAISSGGSKNYADSVKGRFTISRDNGKNTVYFQMNSLKPEDTEVYYCAATQQFWWAYRYDYWGQGTQVTVSS`
OUT: low polyreactivity

====

- protocol_description: yeast display, Sf9 membrane polyspecificity reagent, FACS + sequencing; frameworks hold sequencing errors
assay_endpoint: polyreactivity (PSR sort gate)

Past entries and their recorded results:
• QVQLVESGGGLVQAGGSLRLSCAASGRIFVINAMGWYRQAPGKERELVAAIRSGGSTNYADSVKGRFTISRDNAKNTVYLQMNSLKPEDTAVNYCAARNSGRRSKAYDFKMNYWGQGTQVTVSS = high polyreactivity
• QVQLVESGGGLVQAGGSLRLSCAASGFIYDYAMGWYRQAPGKQREFVARINWSGGSTYYADSVKGRFTISRDNAKNTVYLQMNSLKPEDTAVYYCATSGWAWRTSNPYEYWGQGTQVTVSS = low polyreactivity
• QVQLVESVGGLVQAGGSLRLSCAASGSIFWFYAMGWYRQAPGKVRELVAAITSTGGTYYADSVKGRFTISRDNAKNTVYLQMNSLKPEDTSVYYCAADRFGVQGAYLYDYWGQGTQVTVSS = low polyreactivity
• QVHLVDSGGGLVQAGGILRLSCAASGRIFVNTMGCYRQAPGKEMELVAAITRSGVSTYYADSVKGRFTISRDNAKNTVYLQMNSLKPEDTAVYYCAAREWSGPKIYPPYRYNSWGQGTQVTVSS = high polyreactivity
• QVQLVESGGGLVQAGGSLRLSCAASGFIFARNAMGRYRQDTGKERELVAVISTRGRTYYADSVKGRFTISRDNSKNTVYLQMNSLKPEDTAVYYCNADKVIGYDYWGQCTQVTVSS = high polyreactivity
• QVQLVESGGGLVQAGGSLRLSCAASGSTFRYYAMGWYRQAPGKERELVAAITTSGSRTYYADSVKGRFTISRDNAKNTVYLQMNSLKPEDTAVYYCAKDGWRYSQSLDWYRFGYWGQGTQVTVSS = high polyreactivity

IN: For the sequence shown here, `QVQLVESGGGIVQEGGSLRLSCAASGRTFNRYAMGWYRQAPGKERELVAAISWSGGRTYYADSVKGRFTISRDNAKNTVYLQMNSLIPEGTAVYYCAKEAYIRYDYWGQGTQVTVSS` , give the reported polyreactivity (PSR sort gate).
OUT: low polyreactivity

IN: Report polyreactivity (PSR sort gate) for `QVQLVESGGGLVQAGGSLRLSCAASGSIFLPYAMGWYRQAPGKERELVAAIDTSSGSTYYADSVKGRFTISRDNAKNTVYLQMNSLKPEDTAVYYCNADYWVQGDDWLLYDYWGQGTQVTVSS` please.
OUT: low polyreactivity

IN: Fill in the blank: the reported polyreactivity (PSR sort gate) of `QVQLVESGGGLVQAGGSLRLSCAASGSTFKYNAMGWYRQAPGKERELDAAISSSGGSTSYADSVKGRFTISRDNAKNTVYLQMNSLKPEDTAVYYCAADSYPAYLGFVGFDYWGQGSQVTVSS` is ____.
OUT: low polyreactivity

IN: Look at this sequence and give its reported polyreactivity (PSR sort gate). `QVQLVESVGGLVQAGGSLRLICAASGFIFWDYAMGSDRQAPGKERELVAAISDSGGDTYYAESVKGRFTISRDNAKNTVYLQMNSLKPEDTAVYFCAADLGRNYDYWGQGTQVTVLS`
OUT: low polyreactivity

IN: Item `QVQLQESGGGLVQAGGSLRLSCAASGSISILENMGWYRQPPGLGRDFVAGIGYGSSTYYADSVKGRFTISRDNAKNTVYQQMNSLKPEDTTVYYCAVVEYQCVTYLYWGQGSQVTVSS` has what recorded polyreactivity (PSR sort gate)?
OUT: low polyreactivity

====

- protocol_description: yeast display, Sf9 membrane polyspecificity reagent, FACS + sequencing; frameworks hold sequencing errors
assay_endpoint: polyreactivity (PSR sort gate)

Solved entries:
- QVQLVESGGGLVQAGGSLRLSCAASGSTFGFYAMGWYRQAPGKERELVAVISSGDSTYYADSVKGRFTISRDNAKKTVYLQMNSLIPEDTAVDYCAKDALVIDGGGGYDYWGQGTQVTVSS: low polyreactivity
- QVQLVESGGGLVQAGGSLRLSCAASGFIFNLYAMGWYRQAPGKERELVATITNRGGITHYADSVKGRFTISRDNAKNTVYLQMNSLKPEDSAVYYCAVKVYRRSGGYEYWGQGTQVTVSS: low polyreactivity
- QVQLVESGGGLVQAGGSLRLSCAASGSTFFYYAMGWYRQAPGKERELVAAITSSGGRTYYADSVKGRFTISRDNAKITVYLQMNSLKPEDTAVYYCAARDYRQSRYEYWGQGTQVTVSS: high polyreactivity
- QVQLVESGGGLVQAGGSLRLSCAASGSTFITYAMGWYRQAPGKERELVAAISWSGVGTYYADSVKGRFTISRDNAKNTVYLQMNSLKPEDTAVYYCAVDRIYYYTYGVYYWGQGTQVTVSS: high polyreactivity
- QVQLVESGGGLVQAGGSLRLSCAASGFTFKYNVMGWYRQAPGKERELVAAISKRGGNTYYADSVKGRFTISRDNAKNTVYLQMNSLKPEDTAVYYCAADPTSPETSGQGYDYWGQGTQVTVSS: high polyreactivity

IN: Item `QVQLVETGGGLVQAGGTLRLSCADSGSIYEDNAKGWYRQAPGKERELDAAITWSGDSTYYADSVKGRFTISRDTEKNTVYLQMNSLKPEDTAVYYCNTYRIFCYSRYYAGYDYWGQGTQVTVSS` has what recorded polyreactivity (PSR sort gate)?
OUT: low polyreactivity
